System: 855422-203-R-J1-PDC complex spheroid viability
assay_text: Anticancer human tumor 855422-203-R-J1-PDC patient-derived bladder carcinoma cell line growth inhibition [POLQ]; active = viability on the fitted dose curve at most 10% of control; inactive = the rest
settings: second compound 10 µM; first compound 1 µM
Outcome codes: 1.0 = active, 0.0 = inactive

{"columns": ["compound", "target_system", "class_name"],
 "data": [
  ["CCCS(=O)(=O)Nc1ccc(F)c(C(=O)c2c[nH]c3ncc(-c4ccc(Cl)cc4)cc23)c1F + Nc1ccc(C#CCN(C(=O)Cc2ncc(C(F)(F)F)cc2C(F)(F)F)c2ccc(F)cc2)nn1", "855422-203-R-J1-PDC complex spheroid viability", 0.0],
  ["O=C(c1cc(Cc2n[nH]c(=O)c3ccccc23)ccc1F)N1CCN(C(=O)C2CC2)CC1 + Cc1cccc(N(C)C(=O)C2C(O)CCN2c2nc(C)cc(C(F)(F)F)c2C#N)c1", "855422-203-R-J1-PDC complex spheroid viability", 0.0],
  ["COc1cccc2c1C(=O)c1c(O)c3c(c(O)c1C2=O)CC(O)(C(=O)CO)CC3OC1CC(N)C(O)C(C)O1 (stereo not drawn) + Cc1cccc(N(C)C(=O)C2C(O)CCN2c2nc(C)cc(C(F)(F)F)c2C#N)c1", "855422-203-R-J1-PDC complex spheroid viability", 1.0],
  ["CCc1cc2c(N3CCc4c(cc(Cn5ccnc5)cc4-c4cn(C)nc4C(F)(F)F)C3=O)ccnc2c(OC)n1 + COC1C(OC(N)=O)C(O)C(Oc2ccc3c(O)c(NC(=O)c4ccc(O)c(CC=C(C)C)c4)c(=O)oc3c2C)OC1(C)C", "855422-203-R-J1-PDC complex spheroid viability", 0.0],
  ["CC1COCCN1c1cc(-c2ccnn2C)c2ccnc(-c3ccn[nH]3)c2n1 (stereo not drawn) + Cc1cccc(N(C)C(=O)C2C(O)CCN2c2nc(C)cc(C(F)(F)F)c2C#N)c1", "855422-203-R-J1-PDC complex spheroid viability", 0.0],
  ["COc1cccc(OCCCN)c1-c1cc(Nc2cnc(C#N)cn2)n[nH]1 + COC1C(OC(N)=O)C(O)C(Oc2ccc3c(O)c(NC(=O)c4ccc(O)c(CC=C(C)C)c4)c(=O)oc3c2C)OC1(C)C", "855422-203-R-J1-PDC complex spheroid viability", 1.0],
  ["CNCc1ccc(-c2[nH]c3cc(F)cc4c3c2CCNC4=O)cc1 + COC1C(OC(N)=O)C(O)C(Oc2ccc3c(O)c(NC(=O)c4ccc(O)c(CC=C(C)C)c4)c(=O)oc3c2C)OC1(C)C", "855422-203-R-J1-PDC complex spheroid viability", 0.0],
  ["CNCc1ccc(-c2[nH]c3cc(F)cc4c3c2CCNC4=O)cc1 + Cc1cccc(N(C)C(=O)C2C(O)CCN2c2nc(C)cc(C(F)(F)F)c2C#N)c1", "855422-203-R-J1-PDC complex spheroid viability", 0.0]
]}

###

Tested on: 855422-203-R-J1-PDC complex spheroid viability
assay_text: Anticancer human tumor 855422-203-R-J1-PDC cell line growth inhibition [POLQ];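 also: spheroids exposed to compounds for seven days before readout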
settings: curve of first compound; second compound 1 µM
Recorded measurements of IC50, one per entry

{"columns": ["compound", "IC50"],
 "data": [
  ["O=C(Nc1ccc(O)c(NS(=O)(=O)c2ccc(F)cc2)c1)c1ccc(-c2ccccc2)cc1 + Cc1cccc(N(C)C(=O)C2C(O)CCN2c2nc(C)cc(C(F)(F)F)c2C#N)c1", "> 10 µM"],
  ["C=CC(=O)N1CCN(c2nc(=O)n(-c3c(C)ccnc3C(C)C)c3nc(-c4c(O)cccc4F)c(F)cc23)C(C)C1 (stereo not given) + Cc1cccc(N(C)C(=O)C2C(O)CCN2c2nc(C)cc(C(F)(F)F)c2C#N)c1", "> 10 µM"],
  ["O=C(c1cc(Cc2n[nH]c(=O)c3ccccc23)ccc1F)N1CCN(C(=O)C2CC2)CC1 + Nc1ccc(C#CCN(C(=O)Cc2ncc(C(F)(F)F)cc2C(F)(F)F)c2ccc(F)cc2)nn1", "> 10 µM"],
  ["C=CCn1c(=O)c2cnc(Nc3ccc(N4CCN(C)CC4)cc3)nc2n1-c1cccc(C(C)(C)O)n1 + Cc1cccc(N(C)C(=O)C2C(O)CCN2c2nc(C)cc(C(F)(F)F)c2C#N)c1", "> 1 µM"],
  ["CCc1c2c(nc3ccc(O)cc13)-c1cc3c(c(=O)n1C2)COC(=O)[C@]3(O)CC + COC1C(OC(N)=O)C(O)C(Oc2ccc3c(O)c(NC(=O)c4ccc(O)c(CC=C(C)C)c4)c(=O)oc3c2C)OC1(C)C", "< 0.00316 µM"]
]}

###

Tested on: 855422-203-R-J1-PDC complex spheroid viability
assay_text: Anticancer human tumor 855422-203-R-J1-PDC cell line growth inhibition [POLQ];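 also: spheroids exposed to compounds for seven days before readout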
settings: curve of first compound; second compound 1 µM
Examples of compounds with documented IC50 follow.
measured_endpoint: IC50

{"columns": ["compound", "value"],
 "data": [
  ["C#Cc1c(F)ccc2cc(O)cc(-c3ncc4c(N5CC6CCC(C5)N6)nc(OCC56CCCN5CC(F)C6)nc4c3F)c12 (centres undefined) + Nc1ccc(C#CCN(C(=O)Cc2ncc(C(F)(F)F)cc2C(F)(F)F)c2ccc(F)cc2)nn1", "> 10 µM"],
  ["C=CCn1c(=O)c2cnc(Nc3ccc(N4CCN(C)CC4)cc3)nc2n1-c1cccc(C(C)(C)O)n1 + Nc1ccc(C#CCN(C(=O)Cc2ncc(C(F)(F)F)cc2C(F)(F)F)c2ccc(F)cc2)nn1", "> 1 µM"],
  ["COc1cc2cc(C(=O)CCC(=O)O)sc2cc1OC + Cc1cccc(N(C)C(=O)C2C(O)CCN2c2nc(C)cc(C(F)(F)F)c2C#N)c1", "> 10 µM"],
  ["O=C(Nc1ccc(O)c(NS(=O)(=O)c2ccc(F)cc2)c1)c1ccc(-c2ccccc2)cc1 + Nc1ccc(C#CCN(C(=O)Cc2ncc(C(F)(F)F)cc2C(F)(F)F)c2ccc(F)cc2)nn1", "> 10 µM"]
]}
